System: NCI-H322M
measurementNotes: Antiproliferative activity against human NCI-H322M cells measured after 48 hrs by SRB assay
Assay type: functional, cell-based
details: time 48 hrs
Attribute: TGI

Below, 2 molecules whose answers are already recorded.
smilesRecord: COc1cccc(-c2nn(-c3ccccc3)cc2-c2ccnc(NCCCNC(=O)Nc3ccc(F)cc3)c2)c1
measuredTarget: NCI-H322M
measurementLabel: TGI
measured: > 37 µM
--
smilesRecord: O=C1c2ccccc2-c2n[nH]c3cccc1c23
measuredTarget: NCI-H322M
measurementLabel: TGI
measured: > 100 µM

Request: Reported TGI, molecule "O=C(Nc1ccc(Cl)c(C(F)(F)F)c1)N1CCN(c2cc(-c3cn(-c4ccccc4)nc3-c3cccc(O)c3)ccn2)CC1" : ____
Response: > 22 µM
